The reported measurements were obtained from patent US20180346592A1.

# experimental system: T1, GPC3 on the surface of hepatic cancer cell lines (SK-Hep1-GPC3 transfectant, HepG2, Huh7, Hep3B, SNU398) (human, UniProt P51654 25-554)
# T1 construct: Species is not restated for the cells (hepatic cancer cell lines, or SK-Hep1 transfected with pCMV/GPC3); also called glypican 3
# assay procedure: FACS, SK-Hep1-GPC3 #9 cells, 1 ug antibody; upper right panel
Mean, FL2-H values, listed per item
reported metric: Mean, FL2-H

binder="clone GS008 (scFv, V domains shown, scFv library clone tested as culture supernatant) VH: EVQLLESGGGLVQPGGSLRLSCAASGFTFSNYAMSWVRQAPGKGLEWVSVISPDNGSTYYADSVKGRFTISRDNSKNTLYLQMNSLRAEDTAVYYCARARVHCRRDQCYSYGMDVWGQGTLVTVSS VL: QSVLTQPPSASGTPGQRVTISCTGSSSNIGSNNVTWYQQLPGTAPKLLIYANSQRPSGVPDRFSGSKSGTSASLAISGLRSEDEADYYCGAWDSSLNGYVFGGGTKLTVLG" reported_value=4.89
binder="clone GS007 (scFv, V domains shown, scFv library clone tested as culture supernatant) VH: EVQLLESGGGLVQPGGSLRLSCAASGFTFSNYSMSWVRQAPGKGLEWVSVISHDGRSKYYADSVKGRFAISRDNSKNTLYLQMNSLRAEDTAVYYCAKFRVWKRTNAHSYANAMDVWGQGTLVTVSS VL: QSVLTQPPSASGTPGQRATISCTGSSSNIGSNSVSWYQQLPGTAPKLLIYANSNRPSGVPDRFSGSKSGTSASLAISGLRSEDEADYYCGTWDASLSAYVFGGGTKLTVLG" reported_value=3.94
binder="clone GS001 (scFv, V domains shown, scFv library clone tested as culture supernatant) VH: EVQLLESGGGLVQPGGSLRLSCAASGFTFSSYSMSWVRQAPGKGLEWVSGISPSGGNKYYADSVKGRFTISRDNSKNTLYLQMNSLRAEDTAVYYCARALLGCKSAYCYYAMDVWGQGTLVTVSS VL: QSVLTQPPSASGTPGQRVTISCTGSSSNIGSNAVNWYQQLPGTAPKLLIYADSKRPSGVPDRFSGSKSGTSASLAISGLRSEDEADYYCGSWDSSLSGYVFGGGTKLTVLG" reported_value=5.32
